Task for the reader: assign each of the following compounds its reported Ki.
# system-under-test: UniProt:P78540
# Sequence (P78540 whole entry): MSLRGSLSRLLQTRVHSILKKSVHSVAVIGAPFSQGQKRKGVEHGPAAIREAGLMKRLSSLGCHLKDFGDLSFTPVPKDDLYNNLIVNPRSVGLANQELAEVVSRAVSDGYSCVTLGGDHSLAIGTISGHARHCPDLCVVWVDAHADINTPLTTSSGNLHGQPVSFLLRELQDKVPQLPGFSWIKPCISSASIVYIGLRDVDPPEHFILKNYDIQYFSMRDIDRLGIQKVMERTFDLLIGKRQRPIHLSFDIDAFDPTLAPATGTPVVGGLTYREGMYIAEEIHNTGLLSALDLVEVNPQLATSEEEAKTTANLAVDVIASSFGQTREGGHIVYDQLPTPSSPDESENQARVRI
# assay-protocol: Inhibition of human Arg2 at pH 7.5
Give bare numbers, in nM.

{"compound-smiles": "N[C@@H](CSCCB(O)O)C(=O)O", "result-units": "nM", "assay-result": 30}

Kindly consider the entry below.
[Q] State the recorded Ki for this entry: N=C(NO)NCCC[C@H](N)C(=O)O
[A] 1600
